These entries and their values trace back to ChEMBL document CHEMBL6083177.

Parameter: pIC50. Scope: all listed entries.
- test_target: Bromodomain-containing protein 9 (Homo sapiens)
- Sequence (Q9H8M2 whole entry): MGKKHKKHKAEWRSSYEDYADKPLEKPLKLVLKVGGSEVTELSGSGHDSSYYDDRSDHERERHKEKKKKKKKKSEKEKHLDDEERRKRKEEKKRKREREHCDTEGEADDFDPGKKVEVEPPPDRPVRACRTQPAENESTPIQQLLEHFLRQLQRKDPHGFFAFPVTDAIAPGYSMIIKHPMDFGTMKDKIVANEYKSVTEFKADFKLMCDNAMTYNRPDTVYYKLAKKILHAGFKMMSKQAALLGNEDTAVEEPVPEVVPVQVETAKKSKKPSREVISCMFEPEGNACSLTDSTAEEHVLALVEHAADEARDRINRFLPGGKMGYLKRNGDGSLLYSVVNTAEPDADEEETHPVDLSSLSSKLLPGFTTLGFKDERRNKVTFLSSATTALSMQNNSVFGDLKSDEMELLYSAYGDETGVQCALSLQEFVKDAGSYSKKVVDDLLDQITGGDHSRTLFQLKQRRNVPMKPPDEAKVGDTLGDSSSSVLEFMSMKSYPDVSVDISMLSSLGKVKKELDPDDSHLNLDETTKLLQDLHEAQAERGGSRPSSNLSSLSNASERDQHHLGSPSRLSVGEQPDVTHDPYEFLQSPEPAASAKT
- experimental_details: Inhibition of BRD9 (unknown origin) by TR-FRET assay
pIC50: −log10 of the molar value.

Lookup: pIC50 / Bromodomain-containing protein 9 (Homo sapiens) / COc1cc(-c2cn(C)c(=O)c3cc(F)ccc23)c(OC)cc1CN(C)C
7.70

Lookup: pIC50 / Bromodomain-containing protein 9 (Homo sapiens) / COc1cc(-c2cn(C)c(=O)c3cnccc23)c(OC)cc1CN1CC(N)C1
> 8.00

Next item in the queue.
Lookup: pIC50 / Bromodomain-containing protein 9 (Homo sapiens) / COc1cc(CN(C)C)cc(OC)c1-c1cn(C)c(=O)c2cnccc12
< 5.00

* * *

Parameter: IC50. Scope: all listed entries.
- experimental_details: Inhibition of BRD8/BRD1 (unknown origin)
The answer is to be given in nM; state only the numeric part.

Can you look up the measured IC50 of COc1cc(CN(C)C)cc(OC)c1-c1cn(C)c(=O)c2cnccc12 for me?
80

New cases:
Can you look up the measured IC50 of COc1cc(-c2cn(C)c(=O)c3cc(F)ccc23)c(OC)cc1CN(C)C for me?
160
